# Assay system: HIV-1 protease (Human immunodeficiency virus type 1 group M subtype B, UniProt P04585)
# Construct: The genetically engineered target enzyme (HIV-1 protease, preserved at −85° C.)
# Method notes: Anti-HIV-1 protease activity (fluorescence labeled substrate)
# Type: biochemical
# Run conditions: sample concentration 250 ug/ml
Where a name gives a salt, the structure may show the parent alone.

>  <Compound>
CCOC(=O)c1c(CSc2ccc(F)cc2)n(C2CC2)c2cc(Br)c(O)c(CN3CCN(C)CC3)c12 [Example 19, dihydrochloride]

>  <Assay system>
HIV-1 protease (Human immunodeficiency virus type 1 group M subtype B, UniProt P04585)

>  <inhibition ratio at 250 ug/ml>
63.9

$$$$
>  <Compound>
CCOC(=O)c1c(C[S+]([O-])c2ccccc2)n(C)c2cc(Br)c(O)c(Cn3ccnc3)c12 (stereo not shown) [Example 116]

>  <Assay system>
HIV-1 protease (Human immunodeficiency virus type 1 group M subtype B, UniProt P04585)

>  <inhibition ratio at 250 ug/ml>
37.5

$$$$
>  <Compound>
CCOC(=O)c1c(C[S+]([O-])c2ccc(F)cc2)n(C)c2cc(Br)c(O)c(CN3CCOCC3)c12 (stereo not shown) [Example 58]

>  <Assay system>
HIV-1 protease (Human immunodeficiency virus type 1 group M subtype B, UniProt P04585)

>  <inhibition ratio at 250 ug/ml>
37.4

$$$$
>  <Compound>
CCOC(=O)c1c(C[S+]([O-])c2ccc(F)cc2)n(C2CC2)c2cc(Br)c(O)c(Cn3ccnc3C)c12 (stereo not shown) [Example 138]

>  <Assay system>
HIV-1 protease (Human immunodeficiency virus type 1 group M subtype B, UniProt P04585)

>  <inhibition ratio at 250 ug/ml>
75.7

$$$$

Values were extracted from patent US7960427B2.
